Assay: log P determination by LC-MS in the acidic range
Assay type: physicochemical
Conditions: reversed-phase HPLC column (C18), pH 2.7, Table 4; HPLC on reversed-phase column (C 18), 55° C., acidic range (pH 2.7 or pH 2.3); read-out: log P (acid)
readout name: chromatographic logP
One number for each entry.

Complete the entry with chromatographic logP for CC(NC(=O)Cn1nnc(NC(=O)c2cccnc2)n1)c1ccccc1 (stereo not shown) 1.34

###

Assay: log P determination by LC-MS in the acidic range
Assay type: physicochemical
Details: HPLC on a reversed-phase column (C 18), pH 2.7, values given in the synthesis examples and NMR lists; read-out: HPLC-MS: log P
Source text: The LC-MS determination in the acidic range is effected at pH 2.7 using 0.1% aqueous formic acid and acetonitrile (contains 0.1% formic acid) as eluents, linear gradient from 10% acetonitrile to 95% acetonitrile. Alternatively, the determination is effected in the acidic range at pH 2.3 using 0.1% aqueous phosphoric acid and acetonitrile as eluents; linear gradient from 10% acetonitrile to 95% acetonitrile.
readout name: chromatographic logP
Numbers only.

Complete the entry with chromatographic logP for O=C(Nc1ncn(Cc2ccccc2Cl)n1)c1cccnc1 1.22

###

Answer each item with its documented log P (acid).
Assay: log P determination by LC-MS in the acidic range
Assay type: physicochemical
Details: LC-MS in the acidic range
Numbers only.

Consider the worked cases shown below.
• Cc1c(Br)c(NC(=O)c2cccnc2)nn1Cc1ncccn1 = 0.98
• Cc1cc(NC(=O)c2cccnc2)nn1C(=O)NCc1ccncn1 = 1.05
• Cc1cc(NC(=O)c2cccnc2)nn1C = 0.63
• COCCN(CCOC)C(=O)n1nc(NC(=O)c2cccnc2)cc1C = 1.91

Now let's try a different one.
Complete the entry with log P (acid) for O=C(Nc1ccn(CC(F)(F)F)n1)c1cccnc1 1.43

###

System: Myzus persicae
Test: Myzus persicae - spray test
Format: in vivo
Conditions: Myzus persicae, foliar, 144 h; application rate of 500 g/ha; after 6 days; sprayed Chinese cabbage leaf discs infested by all stages; 100% = all aphids killed; read-out: efficacy in %
readout name: pest or weed control at 500 g/ha (%)
Answers are plain numbers, in %.

• Cc1cc(NC(=O)c2cccnc2)n[nH]1 [Compound I-1-17, N-(5-Methyl-1H-pyrazol-3-yl)nicotinamide] = 90
• Cc1cc(N(C)C(=O)c2cccnc2)nn1-c1ncccn1 = 100
• Cc1cc(NC(=O)c2cccnc2)nn1-c1ncccn1 = 100
• CCSCn1nc(NC(=O)c2cccnc2)cc1C = 100

For each of the compounds below, state pest or weed control at 500 g/ha.
1. O=C(Nc1cc(Br)n(Cc2ncccn2)n1)c1cccnc1
2. Cc1cc(NC(=O)c2cccnc2)nn1C(=O)OC(C)(C)C
3. CCS(=O)(=O)Cn1nc(NC(=O)c2cccnc2)cc1C
4. Cc1cc(NC(=O)c2cncc(F)c2)nn1Cc1ncccn1
5. O=C(Nc1ncn(Cc2ccccc2Cl)n1)c1cccnc1

1. 90
2. 100
3. 100
4. 90
5. 100

###

Answer each item with its documented log P (acid).
Test: log P determination by LC-MS in the acidic range
Assay type: physicochemical
Settings: amines of the formula (II-1); acidic range pH 2.7 (0.1% formic acid/acetonitrile) or pH 2.3 (0.1% phosphoric acid/acetonitrile)
Answers are plain numbers.

Consider the worked cases shown below.
* Cc1ccn(Cn2nc(N)cc2C)n1 [II-1-38] | 0.55
* Cc1cc(N)nn1CC1CC1(Cl)Cl (stereo not shown) [II-1-53] | 1.12
* N#Cc1cc(N)nn1Cc1ncccn1 [II-1-62] | 0.20
* Cc1cc(N)nn1Cn1cncn1 [II-1-43] | −0.23
* Cc1cc(N)nn1Cc1ncccc1Cl [II-1-24] | 0.6

For each of the compounds below, state log P (acid).
1. Cc1cc(N)nn1CSc1ncccn1 [II-1-51]
2. Cc1c(Br)c(N)nn1Cc1ncccn1 [II-1-34]
3. Nc1cc(C2CC2)n(Cc2ccc(Cl)nc2)n1 [II-1-1]

1: 0.49; 2: 0.92; 3: 1.21
